B1: FBF1 (parent)
chain: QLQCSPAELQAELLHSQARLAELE

# Variants of: B1
# protocol-details: protein stability index of a GFP-peptide fusion (GPS, HEK-293T) (PSI 1-6); higher = more stable;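 also: lentivirally expressed fusions sorted by FACS into six bins by GFP to DsRed ratio, PSI derived from sequencing read proportions per bin multiplied by bin number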
# measurement-conditions: c terminus: a fixed tail appended
Use 3 as the dividing line for protein stability index, with the line itself on the Criterion met side and lower values as Criterion not met.

[[record]]
mutant_id = "H15Q"
assigned_class = "Criterion met"

[[record]]
mutant_id = "L13G"
assigned_class = "Criterion met"

[[record]]
mutant_id = "L9E"
assigned_class = "Criterion met"

[[record]]
mutant_id = "L14C"
assigned_class = "Criterion met"

[[record]]
mutant_id = "L20K"
assigned_class = "Criterion met"

[[record]]
mutant_id = "E22N"
assigned_class = "Criterion met"

[[record]]
mutant_id = "A11Q"
assigned_class = "Criterion met"

[[record]]
mutant_id = "L23D"
assigned_class = "Criterion met"

[[record]]
mutant_id = "Q1H"
assigned_class = "Criterion met"

[[record]]
mutant_id = "A21I"
assigned_class = "Criterion not met"


Task: Given "S16E" , state whether its protein stability index is at least 3.
Output: Criterion met

Task: Given "L23A" , state whether its protein stability index is at least 3.
Output: Criterion met

Task: Given "A21L" , state whether its protein stability index is at least 3.
Output: Criterion not met

Task: Given "L23Q" , state whether its protein stability index is at least 3.
Output: Criterion met

Task: Given "L9S" , state whether its protein stability index is at least 3.
Output: Criterion met

Task: Given "Q10D" , state whether its protein stability index is at least 3.
Output: Criterion met

Task: Given "E24C" , state whether its protein stability index is at least 3.
Output: Criterion met

Task: Given "S5M" , state whether its protein stability index is at least 3.
Output: Criterion met

Task: Given "H15Y" , state whether its protein stability index is at least 3.
Output: Criterion not met

Task: Given "L23Y" , state whether its protein stability index is at least 3.
Output: Criterion met
